normalized growth reference
# procedure_summary: chemical genetic growth profiling, strain panel (AID 1159580);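 further: tested at 20 µM; growth read once vehicle control cultures reached saturation at 30 °C; 1 = growth at the plate median or of vehicle wells; lower values mean less growth of the strain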
# protocol_conditions: S. cerevisiae deletion strains, growth OD, locus YDL134C, strain PPH21, stronger effect = lower value
Among all 5,500 compounds or so, about 2,000 (36%) were called active. Inconclusive results (about 18%) are left out. This is one part of the list.

compound: CC(=O)Oc1cccc(O)c1
normalized growth: 1.01

compound: CO[C@H]1CC(O[C@@H]2/C(C)=C/C[C@@H]3C[C@@H](C[C@]4(CC[C@H](C)[C@@H](C5CCCCC5)O4)O3)OC(=O)[C@@H]3C=C(C)/C(=N\O)[C@H]4OC/C(=C\C=C\[C@@H]2C)[C@]43O)O[C@@H](C)C1O (some centres not stated)
normalized growth: 0.96

compound: NCCCCCCNS(=O)(=O)c1cccc2c(Cl)cccc12
normalized growth: 0.985

compound: CCN1CCN(C(=O)NC(C(=O)N[C@@H]2C(=O)N3[C@@H]2SC(C)(C)[C@@H]3C(=O)O)c2ccccc2)C(=O)C1=O (some centres not stated)
normalized growth: 1.01

compound: CN(C)CCCN1c2ccccc2CCc2ccc(Cl)cc21
normalized growth: 0.812

compound: C=C1c2cccc(O)c2C(O)=C2C(=O)[C@]3(O)C(O)=C(C(N)=O)C(=O)[C@@H](N(C)C)[C@@H]3[C@@H](O)[C@H]12
normalized growth: 1.01

compound: CC(=O)Oc1ccc(O)cc1
normalized growth: 0.89

compound: CN(C)[C@@H]1C(=O)C(C(N)=O)=C(O)[C@@]2(O)C(=O)C3=C(O)c4c(O)ccc(Cl)c4[C@@H](O)[C@H]3C[C@@H]12
normalized growth: 1

compound: NC(Cn1ccc(=O)c(O)c1)C(=O)O (configuration not stated)
normalized growth: 1.01

compound: COc1ccccc1OCC(O)CO (configuration not stated)
normalized growth: 0.997

compound: CC(=O)Oc1ccc(/C=C/c2cc(OC(C)=O)cc(OC(C)=O)c2)cc1
normalized growth: 0.97

compound: Cc1ccc2c(c1)C1(C)CCCC(C)(C(=O)O)C1CC2 (configuration not stated)
normalized growth: 0.992

compound: CN(C)[C@@H]1C(=O)C(C(N)=O)=C(O)[C@@]2(O)C(=O)C3=C(O)c4c(O)cccc4[C@@](C)(O)[C@H]3[C@H](O)[C@@H]12
normalized growth: 0.995

compound: CC(=O)N[C@@H](Cc1c[nH]c2ccccc12)C(N)=O
normalized growth: 0.985

compound: CC(C)c1ccc2c(c1)CCC1[C@](C)(CN)CCC[C@]21C (some centres not stated)
normalized growth: 0.486

compound: CCOC(=O)NNc1nncc2ccccc12
normalized growth: 0.979

compound: CC(C)=CCc1c2c(c3occ(-c4ccc(O)c(O)c4)c(=O)c3c1O)C=CC(C)(C)O2
normalized growth: 0.235

compound: CC(=O)c1cc(CC=C(C)C)c(O)c(CC=C(C)C)c1
normalized growth: 0.987

compound: CNCCCC12CCC(c3ccccc31)c1ccccc12
normalized growth: 0.984

compound: CCN(CC)CCOC(=O)C(c1ccccc1)C1CCCCC1 (configuration not stated)
normalized growth: 1.01

compound: O=C(O)CSC1CCS(=O)(=O)C1 (configuration not stated)
normalized growth: 1.02

compound: CC1(C)CC2C1CC[C@]1(CBr)CCC3C(CC(=O)O)C(=O)O[C@@]32C1 (some centres not stated)
normalized growth: 1.05

compound: NC(=O)NC(=O)Cc1ccccc1
normalized growth: 1

compound: COC(=O)c1ccc(S(=O)(=O)N2CCC(C(N)=O)CC2)n1C
normalized growth: 1.03

compound: FC(F)(F)c1cc(-c2noc(C3CCc4ccccc4O3)n2)cc(C(F)(F)F)c1 (configuration not stated)
normalized growth: 1.03

compound: CCN(CC)CCOC(=O)C1(C2CCCCC2)CCCCC1
normalized growth: 1.02

compound: O=C1NC(O)=NC1(c1ccccc1)c1ccccc1
normalized growth: 1.01

compound: CC(=O)c1ccc(O)c(CC=C(C)C)c1
normalized growth: 0.984

compound: Oc1cccc(O)c1
normalized growth: 0.999

compound: COc1ccc2cc(CCC(C)=O)ccc2c1
normalized growth: 0.967

compound: CC[N+](C)(C)c1cccc(O)c1
normalized growth: 0.984

compound: CCC(C)[C@H]1O[C@]2(C=C[C@@H]1C)C[C@@H]1C[C@@H](C/C=C(\C)[C@@H](OC3C[C@H](OC)C(O[C@H]4C[C@H](OC)[C@@H](O)[C@H](C)O4)[C@H](C)O3)[C@@H](C)/C=C/C=C3\CO[C@@H]4[C@H](O)C(C)=C[C@@H](C(=O)O1)[C@]34O)O2 (some centres not stated)
normalized growth: 0.853

compound: CC(=O)OCC(=O)[C@@]1(O)[C@H](C)CC2C3CCC4=CC(=O)C=C[C@]4(C)[C@@]3(F)[C@@H](O)C[C@@]21C (some centres not stated)
normalized growth: 1.02

compound: CC(C)c1ccc2c(c1)CCC1C(C)(C(N)=O)CCCC21C (configuration not stated)
normalized growth: 0.898

compound: NC1=NCCN1CC(=O)O
normalized growth: 1.01

compound: NS(=O)(=O)c1cc2c(cc1Cl)NC(CSCc1ccccc1)=NS2(=O)=O
normalized growth: 1.02

compound: CC(C)=CCc1c2c(c3occ(-c4ccc(O)cc4)c(=O)c3c1O)C=CC(C)(C)O2
normalized growth: 0.736

compound: Cc1ccc(-c2nn[nH]n2)cc1Cl
normalized growth: 0.997

compound: CC(C)CCCC(C)C1CCC2C3C[C@@H](O)[C@@]4(O)C[C@@H](O)CC[C@]4(C)C3CC[C@]12C (some centres not stated)
normalized growth: 0.985

compound: N#CC(c1ccccc1)N1CCCCC1 (configuration not stated)
normalized growth: 0.99

compound: CN(C)CCCN1c2ccccc2CCc2ccccc21
normalized growth: 1.03

compound: NNCc1cccc(O)c1
normalized growth: 0.994

* * *

normalized growth reference
# procedure_summary: chemical genetic growth profiling, strain panel (AID 1159580);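 further: tested at 20 µM; growth read once vehicle control cultures reached saturation at 30 °C; 1 = growth at the plate median or of vehicle wells; lower values mean less growth of the strain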
# protocol_conditions: S. cerevisiae deletion strains, growth OD, locus YHR129C, strain ARP1, stronger effect = lower value
The whole screen tested about 5,500 compounds, of which about 2,000 (36%) were called active. Roughly 18% stayed inconclusive and do not appear here. Some of the results follow.

molecule: CC(C)CCCC(C)C1CC[C@@]2(C)C3=C(CC[C@]12C)[C@@]1(C)CC[C@H](O)C(C)(C)C1CC3 (some centres undefined)
normalized growth: 1
--
molecule: CS(=O)(=O)c1ccc([C@@H](O)[C@@H](CO)NC(=O)C(Cl)Cl)cc1
normalized growth: 0.989
--
molecule: COC(=O)/C(=C1\OC(=O)C(c2ccccc2)=C1O)c1ccccc1
normalized growth: 0.989
--
molecule: CC(=O)OCC(=O)[C@@]1(O)[C@H](C)CC2C3CCC4=CC(=O)C=C[C@]4(C)[C@@]3(F)[C@@H](O)C[C@@]21C (some centres undefined)
normalized growth: 1.01

* * *

normalized growth reference
# procedure_summary: chemical genetic growth profiling, strain panel (AID 1159580);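 further: tested at 20 µM; growth read once vehicle control cultures reached saturation at 30 °C; 1 = growth at the plate median or of vehicle wells; lower values mean less growth of the strain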
# protocol_conditions: S. cerevisiae deletion strains, growth OD, locus YNL271C, strain bni1, stronger effect = lower value
Among all 5,500 compounds or so, about 2,000 (36%) were called active. Not shown: some 18% with an inconclusive outcome. The list shows a part of the results.
measured_parameter: normalized growth

compound: CC(=O)O[C@@H]1CC[C@@]2(C)C(C[C@@H](OC(C)=O)[C@@]3(C)C4=CC(=O)O[C@@H](c5ccoc5)[C@]4(C)CCC23)C1(C)C (stereo not given in full)
reported_value: 1
//
compound: C/C1=C/CC(C)(C)/C=C/C/C(C)=C/CC1
reported_value: 0.998
//
compound: CC(=O)O[C@@H]1CC2C(C)(C)[C@H](O)C=C[C@]2(C)C2CC[C@]3(C)C(=CC(=O)O[C@H]3c3ccoc3)[C@@]21C (stereo not given in full)
reported_value: 1
//
compound: Cc1ccc2c(c1)C1(C)CCCC(C)(C(=O)O)C1CC2 (stereo not given)
reported_value: 0.994
//
compound: C/C1=C\CC(C)(C)/C=C/CC2(C)OC2CC1 (stereo not given)
reported_value: 1.01
//
compound: CC(C)c1ccc2c(c1)CCC1C(C)(C(N)=O)CCCC21C (stereo not given)
reported_value: 0.951
//
compound: CCN1CCN(C(=O)NC(C(=O)N[C@@H]2C(=O)N3[C@@H]2SC(C)(C)[C@@H]3C(=O)O)c2ccccc2)C(=O)C1=O (stereo not given in full)
reported_value: 1.01
//
compound: C=C(C)C1(O)OC(=O)C=C1OC (stereo not given)
reported_value: 0.989
//
compound: CNNC
reported_value: 1.01
//
compound: CC(=O)O[C@@H]1CC2C(C)(C)C(=O)C=C[C@]2(C)C2CC[C@]3(C)C(=CC(=O)O[C@H]3c3ccoc3)[C@@]21C (stereo not given in full)
reported_value: 0.988
